System: Rat
Procedure Summary: Ataxic gait after antagonist alone, bolus intravenous injection
Type: in vivo
Condition Label: i.v.; only the opiate antagonist given
Metric Name: Minimum Dose to Produce Ataxic Gait In Rat

{"Compound": "C=CC[N+]1(C)CC[C@]23c4c5ccc(O)c4O[C@H]2C(=O)CC[C@@]3(O)[C@H]1C5 (stereo partly shown) [N-methylnaloxone]", "Recorded Value": "15 mg/kg i.v."}
{"Compound": "C[N@+]1(CC2CC2)CC[C@]23c4c5ccc(O)c4O[C@H]2C(=O)CC[C@@]3(O)[C@H]1C5 [N-methylnaltrexone]", "Recorded Value": "15 mg/kg i.v."}
{"Compound": "C=CC[N@@+]1(C)CC[C@]23c4c5ccc(O)c4O[C@H]2[C@@H](O)C=C[C@H]3[C@H]1C5 [R N-methylnalorphine]", "Recorded Value": "30 mg/kg i.v."}
{"Compound": "C=CC[N+]1(C)CC[C@]23c4c5ccc(O)c4O[C@H]2[C@@H](O)C=CC3[C@H]1C5 (stereo partly shown) [S N-methylnalorphine]", "Recorded Value": "15 mg/kg i.v."}

Just for reference, patent US6455537B1 is where these values come from.
